# reported solubility; entries follow
assay: Solubility in various media at 25° C. after 24 hours equilibration (UPLC); type: physicochemical; conditions: water; 25° C., 24 hours equilibration
endpoint: solubility (µg/mL)

[[record]]
molecule = "Cc1nc(C)c(C(=O)Nc2ccc(F)c(-c3nc4ncc(-c5ncccc5C)cn4n3)c2)o1 [Form B]"
qualifying_sign = "="
number = 4

[[record]]
molecule = "Cc1nc(C)c(C(=O)Nc2ccc(F)c(-c3nc4ncc(-c5ncccc5C)cn4n3)c2)o1 [Free Form]"
qualifying_sign = "="
number = 9

[[record]]
molecule = "Cc1nc(C)c(C(=O)Nc2ccc(F)c(-c3nc4ncc(-c5ncccc5C)cn4n3)c2)o1 [Amorphous Compound I Fumaric Acid (2:1)]"
qualifying_sign = "<"
number = 0.1

[[record]]
molecule = "Cc1nc(C)c(C(=O)Nc2ccc(F)c(-c3nc4ncc(-c5ncccc5C)cn4n3)c2)o1 [Amorphous Compound I Fumaric Acid (1:1)]"
qualifying_sign = "="
number = 0.2

